Target: T1, rat PTH-1R (rat PTHR endogenously expressed on UMR-106 rat osteosarcoma cells) (rat, UniProt P25961 27-591)
T1 sequence (looked up): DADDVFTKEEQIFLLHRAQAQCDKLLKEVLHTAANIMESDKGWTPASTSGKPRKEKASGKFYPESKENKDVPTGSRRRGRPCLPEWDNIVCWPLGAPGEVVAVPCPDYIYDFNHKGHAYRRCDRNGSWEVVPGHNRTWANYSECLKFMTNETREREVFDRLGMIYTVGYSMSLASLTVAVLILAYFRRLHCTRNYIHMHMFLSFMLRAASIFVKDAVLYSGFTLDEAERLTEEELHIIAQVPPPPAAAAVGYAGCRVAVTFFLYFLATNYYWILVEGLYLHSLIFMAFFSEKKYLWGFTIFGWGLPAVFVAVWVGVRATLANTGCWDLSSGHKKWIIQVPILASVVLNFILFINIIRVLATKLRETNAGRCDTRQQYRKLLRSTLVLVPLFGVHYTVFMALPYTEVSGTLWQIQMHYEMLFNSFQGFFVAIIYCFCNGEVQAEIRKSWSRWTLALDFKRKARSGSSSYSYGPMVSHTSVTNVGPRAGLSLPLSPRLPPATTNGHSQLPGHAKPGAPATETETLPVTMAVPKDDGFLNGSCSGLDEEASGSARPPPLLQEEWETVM
Experiment: cell-based or functional assay
Where no end group is shown, it is not given here. [ ]: non-standard residue; d: D form. Bip(2'-Et-4'-OMe) = CCc1cc(OC)ccc1-c1ccc(C[C@H](N)C(=O)O)cc1; αMePhe(2,6-F2) = C[C@](N)(Cc1c(F)cccc1F)C(=O)O; αMePhe(2-F) = C[C@](N)(Cc1ccccc1F)C(=O)O; αMeW = C[C@](N)(Cc1c[nH]c2ccccc12)C(=O)O; hhPhe = N[C@@H](CCCc1ccccc1)C(=O)O; hArg = N=C(N)NCCCC[C@H](N)C(=O)O; Cit = NC(=O)NCCC[C@H](N)C(=O)O; αMeM = CSCC[C@](C)(N)C(=O)O; αMeP = C[C@@]1(C(=O)O)CCCN1; Nle = CCCC[C@H](N)C(=O)O; Orn = NCCC[C@H](N)C(=O)O; Ac5c = NC1(C(=O)O)CCCC1; Aib = CC(C)(N)C(=O)O
Recorded cAMP released with respect to control, 1 nM peptide, UMR-106 cells by entry

Reported cAMP released with respect to control, 1 nM peptide, UMR-106 cells ( [Ac5c]V[Aib]EIQL[Nle]HQ[Orn]A[Aib][Bip(2'-Et-4'-OMe)][hhPhe] [Seq. ID. 751] ) = 34 percent of control

Reported cAMP released with respect to control, 1 nM peptide, UMR-106 cells ( [Aib]V[Ac5c]EIQ[αMePhe(2,6-F2)][Nle]HQ[hArg][Aib][Cit][αMePhe(2,6-F2)] [Seq. ID. 156] ) = 31 percent of control

Reported cAMP released with respect to control, 1 nM peptide, UMR-106 cells ( [Aib]V[Aib]EIQ[αMePhe(2-F)][Nle]HQ[Aib]A[Aib][αMePhe(2-F)] [Seq. ID. 553] ) = 38 percent of control

Reported cAMP released with respect to control, 1 nM peptide, UMR-106 cells ( [Aib]V[Aib]EIQL[αMeM]HQ[hArg]A[hArg][αMeW][hhPhe] [Seq. ID. 942] ) = 29 percent of control

Reported cAMP released with respect to control, 1 nM peptide, UMR-106 cells ( [Ac5c]V[Ac5c]EIQ[αMePhe(2-F)][Nle]HQ[hArg][αMeP]K[αMePhe(2-F)] [Seq. ID. 65] ) = 34 percent of control

Reported cAMP released with respect to control, 1 nM peptide, UMR-106 cells ( [Ac5c]V[Aib]EIQ[αMePhe(2,6-F2)][Nle]HQ[αMePhe(2,6-F2)]A[Cit][αMePhe(2-F)] [Seq. ID. 479] ) = 48 percent of control

Reported cAMP released with respect to control, 1 nM peptide, UMR-106 cells ( [Aib]V[Aib]EIQ[αMePhe(2,6-F2)][Nle]HQ[hArg][Aib][αMePhe(2,6-F2)][αMePhe(2-F)] [Seq. ID. 212] ) = 34 percent of control

Reported cAMP released with respect to control, 1 nM peptide, UMR-106 cells ( [Ac5c]V[Aib]EIQ[αMePhe(2,6-F2)][Nle]HQ[hArg]A[Cit][Bip(2'-Et-4'-OMe)][hhPhe] [Seq. ID. 813] ) = 82 percent of control

Measured values drawn from patent US8383581B2 for this set.
